These entries and their values trace back to patent US20230013823A1.

- Tested on: recombinant NL4-3 virus (Renilla luciferase in nef)
- PROCEDURE TEXT: HIV cell culture assay (antiviral activity, luciferase readout in MT-2 cells)
- Assay type: cell-based
- RUN CONDITIONS: Renilla, NL43
Listing of recorded pEC50 by entry.
Reminder that pEC50 means the negative base-10 logarithm of the concentration expressed in mol/L.

{"MOLECULE": "CS(=O)(=O)Nc1nn(CCCF)c2c(-n3c([C@H](Cc4cc(F)cc(F)c4)NC(=O)Cn4nc(C(F)F)c5c4C(F)(F)[C@@H]4C[C@H]54)nc4cc(-c5ccn(CC(F)(F)C(F)F)n5)ccc4c3=O)ccc(Cl)c12", "pEC50": 10.31}

Quick one: pEC50 of Cn1nc(NS(C)(=O)=O)c2c(Cl)ccc(-n3c([C@H](Cc4cc(F)cc(F)c4)NC(=O)Cn4nc(C(F)F)c5c4C(F)(F)[C@@H]4C[C@H]54)nc4cc(-c5cnn(CCF)c5)ccc4c3=O)c21 (atropisomer, axis not shown; (P)) ?
10.17

---

Listing of recorded EC50 by entry.
- System: recombinant NL4-3 virus (Renilla luciferase in nef)
- PROCEDURE TEXT: HIV cell culture assay (antiviral activity, luciferase readout in MT-2 cells)
- Format: cell-based
- RUN CONDITIONS: Renilla, NL43
Numeric answer plus unit only.

Please review the entries below; each comes with its answer.
{"COMPOUND": "Cc1cc(C#N)nc(-c2ccc3c(=O)n(-c4ccc(Cl)c5c(NS(C)(=O)=O)nn(C)c45)c([C@H](Cc4cc(F)cc(F)c4)NC(=O)Cn4nc(C(F)F)c5c4C(F)(F)[C@@H]4C[C@H]54)nc3c2)n1 (atropisomer, axis not shown; (P)) [Example 12]", "TARGET DESC": "recombinant NL4-3 virus (Renilla luciferase in nef)", "EC50": "0.087 nM"}
{"COMPOUND": "Cn1nc(NS(C)(=O)=O)c2c(Cl)ccc(-n3c([C@H](Cc4cc(F)cc(F)c4)NC(=O)Cn4nc(C(F)F)c5c4C(F)(F)[C@@H]4C[C@H]54)nc4cc(-c5ccn(CC(C)(C)C)n5)ccc4c3=O)c21 (atropisomer, axis not shown; (P)) [Example 29]", "TARGET DESC": "recombinant NL4-3 virus (Renilla luciferase in nef)", "EC50": "0.21 nM"}
{"COMPOUND": "Cn1nc(NS(C)(=O)=O)c2c(Cl)ccc(-n3c([C@H](Cc4cc(F)cc(F)c4)NC(=O)Cn4nc(C(F)F)c5c4C(F)(F)[C@@H]4C[C@H]54)nc4cc(-c5cccc(C(C)(F)F)n5)ccc4c3=O)c21 (atropisomer, axis not shown; (P)) [Example 28]", "TARGET DESC": "recombinant NL4-3 virus (Renilla luciferase in nef)", "EC50": "0.12 nM"}

Now for the compound whose EC50 we want.
Quick one: EC50 of Cn1nc(NS(C)(=O)=O)c2c(Cl)ccc(-n3c([C@H](Cc4cc(F)cc(F)c4)NC(=O)Cn4nc(C(F)F)c5c4C(F)(F)[C@@H]4C[C@H]54)nc4cc(-c5cccc(C(F)F)c5F)ccc4c3=O)c21 (atropisomer, axis not shown; (P)) [Example 18] ?
0.54 nM

---

- PROCEDURE TEXT: Compound cytotoxicity, XTT-based colorimetric assay
- Type: cell-based
- RUN CONDITIONS: human; uninfected MT2 cells, day 4, XTT
REPORTED PROPERTY: CC50 at 4 days

Quick one: CC50 at 4 days of Cn1nc(NS(C)(=O)=O)c2c(Cl)ccc(-n3c([C@H](Cc4cc(F)cc(F)c4)NC(=O)Cn4nc(C(F)F)c5c4C(F)(F)[C@@H]4C[C@H]54)nc4cc(-c5ccnc(CF)n5)ccc4c3=O)c21 (atropisomer, axis not shown; (P)) ?
> 100 nM

Quick one: CC50 at 4 days of COc1nccc(-c2ccc3c(=O)n(-c4ccc(Cl)c5c(NS(C)(=O)=O)nn(C)c45)c([C@H](Cc4cc(F)cc(F)c4)NC(=O)Cn4nc(C(F)F)c5c4C(F)(F)[C@@H]4C[C@H]54)nc3c2)n1 (atropisomer, axis not shown; (P)) ?
> 500 nM

Quick one: CC50 at 4 days of Cn1nc(NS(C)(=O)=O)c2c(Cl)ccc(-n3c([C@H](Cc4cc(F)cc(F)c4)NC(=O)Cn4nc(C(F)F)c5c4C(F)(F)[C@@H]4C[C@H]54)nc4cc(-c5ncc(F)cc5F)ccc4c3=O)c21 (atropisomer, axis not shown; (P)) ?
> 500 nM

Quick one: CC50 at 4 days of Cn1nc(NS(C)(=O)=O)c2c(Cl)ccc(-n3c([C@H](Cc4cc(F)cc(F)c4)NC(=O)Cn4nc(C(F)F)c5c4C(F)(F)[C@H]4C[C@@H]54)nc4cc(-c5ccnn5C5CC5)ccc4c3=O)c21 (atropisomer, axis not shown; (P)) ?
> 100 nM

---

- Tested on: recombinant NL4-3 virus (Renilla luciferase in nef)
- PROCEDURE TEXT: HIV cell culture assay (antiviral activity, luciferase readout in MT-2 cells)
- Type: cell-based
- RUN CONDITIONS: Renilla, NL43
Listing of recorded EC50 by entry.
Numeric answer plus unit only.

Please review the entries below; each comes with its answer.
{"COMPOUND": "Cc1cc(-c2ccc3c(=O)n(-c4ccc(Cl)c5c(NS(C)(=O)=O)nn(C)c45)c([C@H](Cc4cc(F)cc(F)c4)NC(=O)Cn4nc(C(F)F)c5c4C(F)(F)[C@@H]4C[C@H]54)nc3c2)nc(C(F)(F)F)n1 (atropisomer, axis not shown; (P))", "EC50": "0.087 nM"}
{"COMPOUND": "Cn1nc(NS(C)(=O)=O)c2c(Cl)ccc(-n3c([C@H](Cc4cc(F)cc(F)c4)NC(=O)Cn4nc(C(F)F)c5c4C(F)(F)[C@@H]4C[C@H]54)nc4cc(-c5cncc(C(F)(F)F)n5)ccc4c3=O)c21 (atropisomer, axis not shown; (P))", "EC50": "0.06 nM"}
{"COMPOUND": "Cn1nc(NS(C)(=O)=O)c2c(Cl)ccc(-n3c([C@H](Cc4cc(F)cc(F)c4)NC(=O)Cn4nc(C(F)F)c5c4C(F)(F)[C@@H]4C[C@H]54)nc4cc(-n5cc(C(F)(F)F)cn5)ccc4c3=O)c21 (atropisomer, axis not shown; (P))", "EC50": "0.17 nM"}

Quick one: EC50 of Cc1nc2cc(-c3ccc4c(=O)n(-c5ccc(Cl)c6c(NS(C)(=O)=O)nn(C)c56)c([C@H](Cc5cc(F)cc(F)c5)NC(=O)Cn5nc(C(F)F)c6c5C(F)(F)[C@@H]5C[C@H]65)nc4c3)ccc2s1 (atropisomer, axis not shown; (P)) ?
1.8 nM

Quick one: EC50 of COc1nccc(-c2ccc3c(=O)n(-c4ccc(Cl)c5c(NS(C)(=O)=O)nn(C)c45)c([C@H](Cc4cc(F)cc(F)c4)NC(=O)Cn4nc(C(F)F)c5c4C(F)(F)[C@@H]4C[C@H]54)nc3c2)n1 (atropisomer, axis not shown; (P)) ?
0.083 nM

Quick one: EC50 of Cn1nc(NS(C)(=O)=O)c2c(Cl)ccc(-n3c([C@H](Cc4cc(F)cc(F)c4)NC(=O)Cn4nc(C(F)F)c5c4C(F)(F)[C@@H]4C[C@H]54)nc4cc(-c5ccc(F)nc5F)ccc4c3=O)c21 (atropisomer, axis not shown; (P)) ?
0.047 nM

---

- Test system: recombinant NL4-3 virus (Renilla luciferase in nef)
- PROCEDURE TEXT: HIV cell culture assay (antiviral activity, luciferase readout in MT-2 cells)
- Format: cell-based
- RUN CONDITIONS: Renilla, NL43
Listing of recorded EC50 by entry.
Write it as a number; the unit nM goes unstated.

{"MOLECULE": "CC(F)(F)Cn1ccc(-c2ccc3c(=O)n(-c4ccc(Cl)c5c(NS(C)(=O)=O)nn(CC(F)F)c45)c([C@H](Cc4cc(F)cc(F)c4)NC(=O)Cn4nc(C(F)F)c5c4C(F)(F)[C@@H]4C[C@H]54)nc3c2)n1 (atropisomer, axis not shown; (P))", "TARGET DESC": "recombinant NL4-3 virus (Renilla luciferase in nef)", "EC50 / nM": 0.087}

Quick one: EC50 of Cn1nc(NS(C)(=O)=O)c2c(Cl)ccc(-n3c([C@H](Cc4cc(F)cc(F)c4)NC(=O)Cn4nc(C(F)F)c5c4C(F)(F)[C@H]4C[C@@H]54)nc4cc(-c5ccn(CC6CC6)n5)ccc4c3=O)c21 (atropisomer, axis not shown; (P)) ?
0.11

---

- Test system: recombinant NL4-3 virus (Renilla luciferase in nef)
- PROCEDURE TEXT: HIV cell culture assay (antiviral activity, luciferase readout in MT-2 cells)
- Assay type: cell-based
- RUN CONDITIONS: Renilla, NL43
REPORTED PROPERTY: pEC50
Reminder that pEC50 means the negative base-10 logarithm of the concentration expressed in mol/L.

{"MOLECULE": "Cn1nc(NS(C)(=O)=O)c2c(Cl)ccc(-n3c([C@H](Cc4cc(F)cc(F)c4)NC(=O)Cn4nc(C(F)F)c5c4C(F)(F)[C@@H]4C[C@H]54)nc4cc(-c5cc(C(F)(F)F)ncn5)ccc4c3=O)c21 (atropisomer, axis not shown; (P)) [Example 25]", "pEC50": 10.08}
{"MOLECULE": "CC(F)(F)Cn1ccc(-c2ccc3c(=O)n(-c4ccc(Cl)c5c(NS(=O)(=O)C6CC6)nn(CC(F)F)c45)c([C@H](Cc4cc(F)cc(F)c4)NC(=O)Cn4nc(C(F)F)c5c4C(F)(F)[C@@H]4C[C@H]54)nc3c2)n1 (atropisomer, axis not shown; (P)) [Example 69]", "pEC50": 9.80}
{"MOLECULE": "Cc1cc(-c2ccc3c(=O)n(-c4ccc(Cl)c5c(NS(C)(=O)=O)nn(C)c45)c([C@H](Cc4cc(F)cc(F)c4)NC(=O)Cn4nc(C(F)F)c5c4C(F)(F)[C@@H]4C[C@H]54)nc3c2)nn1CC(F)(F)C(F)(F)F (atropisomer, axis not shown; (P)) [Example 60]", "pEC50": 9.68}

Now for the molecule whose pEC50 we want.
Quick one: pEC50 of Cn1nc(NS(C)(=O)=O)c2c(Cl)ccc(-n3c([C@H](Cc4cc(F)cc(F)c4)NC(=O)Cn4nc(C(F)F)c5c4C(F)(F)[C@@H]4C[C@H]54)nc4cc(-c5csc(C(F)(F)F)n5)ccc4c3=O)c21 (atropisomer, axis not shown; (P)) [Example 1] ?
10.04
